test system: Peroxisome proliferator-activated receptor gamma (Homo sapiens)
assay overview: qHTS assay to identify small molecule agonists of the peroxisome proliferator-activated receptor gamma (PPARg) signaling pathway (AID 743094)
condition summary: HEK293H PPARg-UAS-bla, beta-lactamase FRET ratio, 17 h; series mostly up to 57 µM
Inconclusive results are not listed. Active and inactive are the calls of the source. Calls come from the whole dose curve; as a rule, active = well fitted activation curve with a large enough effect in the signal ratio in the repeat runs (not every such curve was filed as active); inconclusive = weak or mixed curves, or effect the other way; inactive = no such curve, though single readings can be large or run the other way; the % refers to the signal ratio.
observable: outcome

{"compound": "c1ccc(-c2ccccc2)cc1", "test system": "Peroxisome proliferator-activated receptor gamma (Homo sapiens)", "outcome": "inactive"}
{"compound": "Cc1cccc([N+](=O)[O-])c1", "test system": "Peroxisome proliferator-activated receptor gamma (Homo sapiens)", "outcome": "inactive"}
{"compound": "O=c1[nH]c2ccccc2c(=O)o1", "test system": "Peroxisome proliferator-activated receptor gamma (Homo sapiens)", "outcome": "inactive"}
{"compound": "Cc1cc(Cl)ccc1O", "test system": "Peroxisome proliferator-activated receptor gamma (Homo sapiens)", "outcome": "inactive"}
{"compound": "CCCCCOC(=O)c1ccccc1C(=O)OCCCCC", "test system": "Peroxisome proliferator-activated receptor gamma (Homo sapiens)", "outcome": "inactive"}

query: Report outcome for O=S(=O)(c1ccc(O)cc1)c1ccc(O)cc1 tested on Peroxisome proliferator-activated receptor gamma (Homo sapiens).
result: inactive

query: Report outcome for CN(C)[C@@H]1C(=O)C(C(N)=O)=C(O)[C@@]2(O)C(=O)C3=C(O)c4c(O)cccc4[C@@](C)(O)[C@H]3C[C@@H]12 tested on Peroxisome proliferator-activated receptor gamma (Homo sapiens).
result: inactive

query: Report outcome for CN(N=O)c1ccccc1 tested on Peroxisome proliferator-activated receptor gamma (Homo sapiens).
result: inactive

query: Report outcome for Cc1ccc(N)cc1Cl tested on Peroxisome proliferator-activated receptor gamma (Homo sapiens).
result: inactive

query: Report outcome for CC(C#N)CCC#N (stereo not given) tested on Peroxisome proliferator-activated receptor gamma (Homo sapiens).
result: inactive

Values compiled from PubChem BioAssay (Tox21).
